Some variants, each annotated with its measured protein stability index.
B1: ZNF263 (parent)
chain: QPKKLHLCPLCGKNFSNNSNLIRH

Variants of: B1
assay.remarks: protein stability index of a GFP-peptide fusion (GPS, HEK-293T) (PSI 1-6); higher = more stable;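 note: lentivirally expressed fusions sorted by FACS into six bins by GFP to DsRed ratio, PSI derived from sequencing read proportions per bin multiplied by bin number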
study.conditions: c terminus: a fixed tail appended
readout.kind: protein stability index

variant.code	readout.kind	value.reported
N20S	protein stability index	3.09
N18A	protein stability index	2.97
L10Q	protein stability index	2.91
K4N	protein stability index	2.92
L10V	protein stability index	2.96
N14K	protein stability index	2.94
R23P	protein stability index	2.93

Data origin, for the record: the supplement of paper PMC10567573
